Entry source: patent EP1391197B1

- study-system: 5-Lipoxygenase (Homo sapiens)
- Construct: Granulozyten freiwilliger Spender; endogenous in cells
- Sequence (P09917 1-674): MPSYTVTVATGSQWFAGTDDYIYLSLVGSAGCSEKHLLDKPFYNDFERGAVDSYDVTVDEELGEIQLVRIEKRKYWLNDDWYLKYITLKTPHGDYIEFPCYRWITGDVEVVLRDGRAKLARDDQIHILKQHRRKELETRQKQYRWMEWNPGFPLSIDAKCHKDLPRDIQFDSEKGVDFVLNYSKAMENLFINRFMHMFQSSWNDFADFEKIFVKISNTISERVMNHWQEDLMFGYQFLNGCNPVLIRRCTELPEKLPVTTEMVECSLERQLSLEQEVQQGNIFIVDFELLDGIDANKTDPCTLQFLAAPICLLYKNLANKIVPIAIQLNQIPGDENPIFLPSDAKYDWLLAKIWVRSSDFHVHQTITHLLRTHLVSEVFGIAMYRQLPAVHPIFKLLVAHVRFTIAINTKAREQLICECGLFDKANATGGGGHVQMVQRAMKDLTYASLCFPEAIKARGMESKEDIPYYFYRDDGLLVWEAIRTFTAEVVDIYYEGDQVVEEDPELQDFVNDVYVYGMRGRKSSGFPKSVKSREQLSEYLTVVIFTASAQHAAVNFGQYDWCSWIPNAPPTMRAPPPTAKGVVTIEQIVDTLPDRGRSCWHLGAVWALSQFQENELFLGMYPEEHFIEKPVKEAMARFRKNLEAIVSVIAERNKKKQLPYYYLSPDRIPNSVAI
- assay: 5-lipoxygenase test in granulocytes (HPLC of 5-lipoxygenase products)
- study-conditions: granulocytes of volunteer donors, arachidonic acid and calcium ionophore, 37°C, 10 min, pH 7,4; read-out: IC50- Wert (Bildung von Biotransformationsprodukten der 5-Lipoxygenase)
pIC50: −log10 of the molar value.

smiles-string | study-system | pIC50
CC1=CCC[C@H]2[C@](C)(Cc3cc(O)ccc3O)[C@@H](C)CC[C@]12C | 5-Lipoxygenase (Homo sapiens) | 5.89
